# Tested on: respiratory syncytial virus (RSV)
# Experimental Details: Respiratory syncytial virus replication in bronchial HAE (RT-qPCR)
# Assay type: cell-based
# Assay Setup: 50 μM, 10 days
No end group written: not given here.
Label yes (1) when Sincitial respiratory virus Inhib. % is strictly below 80%; otherwise label no (0).

Study these solved cases before continuing.
INSERT INTO assay_data (substance, qualitative_label) VALUES
  ('Ac-RVTQMNLNDRLASLYDKV [SEQ ID NO: 2]', 'no (0)'),
  ('SEQ ID NO: 19: synthetic peptide related to SEQ ID NO: 1, obtained by solid phase synthesis (RVTQMNLNDRLASLYDKV; Description of the Artificial Sequence synthetic peptide where N6 is a D amino acid)', 'yes (1)');

Is the reported Sincitial respiratory virus Inhib. % for RVTQMNLNDRLASLYDAV [SEQ ID NO: 13] strictly below 80%? no (0)
